Listing of entries alongside the reported Ki.
experimental.system: GST-MCL-1 (Homo sapiens, UniProt Q07820)
Sequence (Q07820 whole entry): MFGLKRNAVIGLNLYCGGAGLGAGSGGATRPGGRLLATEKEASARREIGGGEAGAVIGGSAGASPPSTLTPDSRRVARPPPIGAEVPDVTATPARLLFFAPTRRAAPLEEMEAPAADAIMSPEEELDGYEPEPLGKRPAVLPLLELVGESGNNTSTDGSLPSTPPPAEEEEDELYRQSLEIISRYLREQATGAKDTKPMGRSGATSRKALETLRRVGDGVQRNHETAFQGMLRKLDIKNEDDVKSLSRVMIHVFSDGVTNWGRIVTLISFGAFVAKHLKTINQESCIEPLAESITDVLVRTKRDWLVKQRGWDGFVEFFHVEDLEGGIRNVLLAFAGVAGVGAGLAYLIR
test.protocol: TR-FRET MCL-1 binding assay (competition with probe F-Bak)
settings: without HS; read-out: MCL-1 Binding Ki
The figure you give is taken to be in nM; do not add the unit.

1. CO[C@H]1O[C@H](COc2ccc(-c3nccc(COc4ccc5cc4C[C@H](C(=O)O)Oc4ncnc6sc(-c7ccc(F)cc7)c(c46)-c4ccc(c(Cl)c4C)CN(CCN4CCN(C)CC4)C5)n3)cc2)[C@@H](OC)[C@H](OC)[C@@H]1OC :: 0.374

q: Ki lookup needed for Cc1c(Cl)c2c(Cl)c(C)c1-c1c(-c3ccc(F)cc3)sc3ncnc(c13)O[C@@H](C(=O)O)Cc1cc(ccc1OCc1ccnc(-c3ccc(CN4CCOCCOCCOCCOCC4)cc3)n1)OC[C@@H](CN1CCN(C)CC1)O2 , thanks.
a: 0.002

q: Ki lookup needed for Cc1c(Cl)c2c(Cl)c(C)c1-c1c(-c3ccc(F)cc3)sc3ncnc(c13)O[C@@H](C(=O)O)Cc1cc(ccc1OCc1ccnc(C3(COCCOCCOC[C@H]4COCCO4)CCC3)n1)OC[C@@H](CN1CCN(C)CC1)O2 , thanks.
a: 0.064

q: Ki lookup needed for COCCOCCOCCOCCOCCOCC1(F)CC=C(c2nccc(COc3ccc4cc3C[C@H](C(=O)O)Oc3ncnc5sc(-c6ccc(F)cc6)c(c35)-c3c(C)c(Cl)c(c(Cl)c3C)O[C@H](CN3CCN(C)CC3)CO4)n2)CC1 (single isomer, unassigned) [Example 100] , thanks.
a: 0.017

---

experimental.system: UniProtKB Q07820
test.protocol: TR-FRET MCL-1 binding assay (competition with probe F-Bak)
settings: MCL-1 Binding Ki (nM, 10% HS), in the presence of 10% HS (human serum)
Listing of entries alongside the reported Ki.

1. Cc1c(Cl)c2c(Cl)c(C)c1-c1c(-c3ccc(F)cc3)sc3ncnc(c13)O[C@@H](C(=O)O)Cc1cc(ccc1OCc1ccnc(-c3ccc(CN4CCOCCOCCOCCOCC4)cc3)n1)OC[C@@H](CN1CCN(C)CC1)O2 :: 0.064 nM

Let us examine a further case.
q: # value lookup — system UniProtKB Q07820, readout Ki, item COCCOCCOCCOCc1cc(OC[C@H]2COCCO2)ccc1-c1nccc(COc2ccc3cc2C[C@H](C(=O)O)Oc2ncnc4sc(-c5ccc(F)cc5)c(c24)-c2c(C)c(Cl)c(c(Cl)c2C)O[C@H](CN2CCN(C)CC2)CO3)n1
a: 0.03 nM

---

experimental.system: GST-MCL-1 (Homo sapiens)
test.protocol: TR-FRET MCL-1 binding assay (competition with probe F-Bak)
settings: without HS; read-out: MCL-1 Binding Ki
quantity: Ki (nM)
The figure you give is taken to be in nM; do not add the unit.

1) Cc1c(Cl)c2c(Cl)c(C)c1-c1c(-c3ccc(F)cc3)sc3ncnc(c13)O[C@@H](C(=O)O)Cc1cc(ccc1OCc1ccnc(N3CCC4(CCCNC4=O)CC3)n1)OC[C@@H](CN1CCN(C)CC1)O2 :: 0.364

Let us examine a further case.
q: Ki lookup needed for COCCOCCOCCOCCO[C@H]1CC[C@H](c2nccc(COc3ccc4cc3C[C@H](C(=O)O)Oc3ncnc5sc(-c6ccc(F)cc6)c(c35)-c3c(C)c(Cl)c(c(Cl)c3C)O[C@H](CN3CCN(C)CC3)CO4)n2)CC1 , thanks.
a: 0.012

This collection of values is drawn from patent US20250313572A1.
